Molecular target: T1, RBFOX1 RRM (Homo sapiens, UniProt Q9NWB1 109-208)
T1 sequence: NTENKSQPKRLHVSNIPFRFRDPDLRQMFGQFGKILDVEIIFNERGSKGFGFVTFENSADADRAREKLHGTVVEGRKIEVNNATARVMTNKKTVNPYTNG
Experiment: EMSA; HiTS-Eq, 1 nM pool, 10 min; buffer printed only for the single-RNA assays: 10 mM Tris pH 7.5, 150 mM NaCl, 3.4 mM EDTA, 0.001% NP-40, 30 C
Conditions: tags: His6 N-terminal (pET28a); label: 5' 32P
The full ranking holds about 16,000 sequences; the median of “ka relative to ugcaugu” is about 0.0091, and the highest 2% start at about 0.032. Many of the other results were omitted from the sample, so the highest values are more common in it than they were.
Listed binders paired with reported binding signal

Answered examples (3):
{"columns": ["binder", "binding signal"],
 "data": [
  ["UGUGUGU (DNA:RNA) RNA: GGGAGACCGGAAUUCAGAUUGUCCUGUGUGUUUAAAUCCCGUCGUAGCCACCA DNA 1: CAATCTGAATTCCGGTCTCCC DNA 2: TGGTGGCTACGACGGGATT", "0.0346 KA relative to UGCAUGU"],
  ["UGUUAAA (DNA:RNA) RNA: GGGAGACCGGAAUUCAGAUUGUCCUGUUAAAUUAAAUCCCGUCGUAGCCACCA DNA 1: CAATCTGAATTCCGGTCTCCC DNA 2: TGGTGGCTACGACGGGATT", "0.0109 KA relative to UGCAUGU"],
  ["UGUGUUG (DNA:RNA) RNA: GGGAGACCGGAAUUCAGAUUGUCCUGUGUUGUUAAAUCCCGUCGUAGCCACCA DNA 1: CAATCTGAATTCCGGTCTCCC DNA 2: TGGTGGCTACGACGGGATT", "0.0299 KA relative to UGCAUGU"]
]}

# evaluate next
Challenge: Fill in the blank: the reported binding signal of CCUCUCC (DNA:RNA) RNA: GGGAGACCGGAAUUCAGAUUGUCCCCUCUCCUUAAAUCCCGUCGUAGCCACCA DNA 1: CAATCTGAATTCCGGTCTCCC DNA 2: TGGTGGCTACGACGGGATT is ____.
Response given: 0.00489 KA relative to UGCAUGU
